Molecular target: human recombinant 15-PGDH (Homo sapiens)
Sequence (P15428 1-266): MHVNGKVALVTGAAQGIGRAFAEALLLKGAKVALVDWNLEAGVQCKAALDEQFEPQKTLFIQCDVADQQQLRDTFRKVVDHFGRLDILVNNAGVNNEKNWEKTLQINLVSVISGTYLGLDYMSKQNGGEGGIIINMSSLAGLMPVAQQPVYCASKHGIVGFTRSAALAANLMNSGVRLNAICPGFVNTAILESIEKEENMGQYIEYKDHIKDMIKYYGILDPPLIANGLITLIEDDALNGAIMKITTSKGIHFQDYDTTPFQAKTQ
Assay: Inhibition of recombinant 15-PGDH enzymatic activity (NADH quantification after addition of PGE2 and NAD+)
Type: biochemical
Quantity: IC50

Query Cn1cc2cc(-c3cc(C4CCC4)c4c(N)c(C(=O)N5CCC(F)(F)CC5)sc4n3)cnc2n1 [Compound B4] on human recombinant 15-PGDH (Homo sapiens); IC50 returned: 0.387 nM

---

target: human recombinant 15-PGDH (Homo sapiens); assay: Inhibition of recombinant 15-PGDH enzymatic activity (NADH quantification after addition of PGE2 and NAD+); format: biochemical; settings: recombinant 15-PGDH; 15 min pre-incubation, 60-minute reaction, room temperature, pH 7.5; PGE2 and NAD+; read-out: PGDH-Lumi IC50
Quantity: IC50

# count of solved cases: 3
Molecule | Quantity | Result
C[C@H]1COCCN1C(=O)c1cc2ccc(-c3cnc4c(=O)n(C)ccc4c3)nc2s1 [Compound B62S] | IC50 | 39.2 nM
Cn1cc2cc(-c3cnc4sc(C(=O)N5CCCCC5)cc4c3)cnc2n1 [Compound B16] | IC50 | 9.51 nM
Cn1cc2cc(-c3ccc4sc(C(=O)N5CCCC(F)(F)C5)c(N)c4n3)cnc2n1 [Compound C47] | IC50 | 1.63 nM

Next item in the queue.
Entry Cn1cc2cc(-c3ccc4cc(C(=O)N5CC6CCC(C5)O6)sc4n3)cnc2n1 [Compound B37] ; IC50 = 2.38 nM

---

Biological target: human recombinant 15-PGDH (Homo sapiens)
Assay: Inhibition of recombinant 15-PGDH enzymatic activity (NADH quantification after addition of PGE2 and NAD+)
Format: biochemical
Conditions: recombinant 15-PGDH; 15 min pre-incubation, 60-minute reaction, room temperature, pH 7.5; PGE2 and NAD+; read-out: PGDH-Lumi IC50
Protocol: The compound dose-response of its inhibition of 15-PGDH activity was determined in human recombinant 15-PGDH enzymatical assays. These assays measured 15-PGDH enzymatic activity by quantifying the amount of NADH produced during a 60-minute reaction initiated by the addition of PGE2 and NAD+. […] After 60 minutes at room temperature, the reaction was quenched and NADH signal was measured using a microtiter plate reader. […]
Quantity: pIC50
For clarity, pIC50 is expressed as the negative log10 of concentration in mol/L.

Examples with answers:
Molecule | pIC50
C[C@H]1COCCN1C(=O)c1cc2ccc(-c3cnc4c(c3)nnn4C)nc2s1 [Compound B44S] | 7.27
O=C(c1cc2ccc(-c3ccc4ncccc4c3)nc2s1)N1CCOCC1 [Compound B49] | 7.11
C[C@@H]1COCCN1C(=O)c1cc2ccc(-c3cnc4nn(C)nc4c3)nc2s1 [Compound B43R] | 7.39
Cn1ccc2cc(-c3cnc4sc(C(=O)N5CCCCC5)cc4c3)ccc2c1=O [Compound B28] | 7.92
Cn1cnc2ncc(-c3ccc4cc(C(=O)N5CCOCC5)sc4n3)cc21 [Compound B50] | 8.58
Cn1cc2cc(-c3nc(C4CC4)c4sc(C(=O)N5CCOCC5)cc4n3)cnc2n1 [Compound C49] | 8.78
Cn1cc2cc(-c3ccc4cc(C(=O)N5CCOCC5(C)C)sc4n3)cnc2n1 [Compound B29] | 7.08

Recorded pIC50 (molecule Cn1cc2cc(-c3cc(C4CC4)c4cc(C(=O)N5CCC(F)(F)CC5)sc4n3)cnc2n1 [Compound B19] ): 9.07

---

Property: pIC50; scope: individual molecules
target: human recombinant 15-PGDH (Homo sapiens); assay: Inhibition of recombinant 15-PGDH enzymatic activity (NADH quantification after addition of PGE2 and NAD+); assay type: biochemical; conditions: recombinant 15-PGDH; 15 min pre-incubation, 60-minute reaction, room temperature, pH 7.5; PGE2 and NAD+; read-out: PGDH-Lumi IC50
# pIC50 = -log10(concentration in molar units)

Some molecules with recorded pIC50:
Molecule | pIC50
C[C@@H]1COCCN1C(=O)c1cc2ccc(-c3cnc4nccnc4c3)nc2s1 [Compound B60R] | 7.97
CC1CC(F)(F)CCN1C(=O)c1cc2ccc(-c3cnc4nn(C)cc4c3)nc2s1 (single isomer, unassigned) [Compound B27R] | 8.82
Cc1c(C(=O)N2CCOCC2)sc2cc(-c3cnc(NCCO)nc3)ccc12 | 5.79

Param item: `Cn1cc2cc(-c3cnc4cc(C(=O)N5CCC(F)(F)CC5)sc4n3)cnc2n1` ; param system: human recombinant 15-PGDH (Homo sapiens); output pIC50: 8.86

---

target: human recombinant 15-PGDH (Homo sapiens); test: Inhibition of recombinant 15-PGDH enzymatic activity (NADH quantification after addition of PGE2 and NAD+); format: biochemical; settings: recombinant 15-PGDH; 15 min pre-incubation, 60-minute reaction, room temperature, pH 7.5; PGE2 and NAD+; read-out: PGDH-Lumi IC50
Quantity: pIC50
Formally, pIC50 is defined as -log10 of the concentration c, with c in mol/L.

Here is how some compounds turned out for pIC50.
Compound | pIC50
CO[C@H]1CCCN(C(=O)c2sc3cc(-c4cnc5nn(C)cc5c4)ccc3c2C)C1 | 7.18
C[C@H]1COCCN1C(=O)c1cc2ccc(-c3cnc4nn(C)cc4c3)nc2s1 | 8.30
CC1CN(C(=O)c2cc3ccc(-c4cnc5nn(C)cc5c4)nc3s2)CCO1 (stereo not drawn) | 8.87
Cn1cc2cc(-c3ccc4cc(C(=O)N5C[C@H]6CC[C@@H]5CO6)sc4n3)cnc2n1 (stereo in doubt) | 8.76
Cn1cc2cc(-c3cc(C4CC4)c4cc(C(=O)N5CCCC(F)(F)C5)sc4n3)cnc2n1 | 9.50
C[C@H]1COCCN1C(=O)c1cc2ccc(-c3cc(=O)n(C)cn3)nc2s1 [Compound B34S] | 6.70
Cc1c(C(=O)N2CCOCC2)sc2cc(-c3cncnc3)ccc12 | 5.35
Cn1cc2cc(-c3ccc4cc(C(=O)N5CCOCC56COC6)sc4n3)cnc2n1 | 6.47

Lab note: C[C@H]1COCCN1C(=O)c1cc2ccc(-c3ccc4ncccc4c3)nc2s1 [Compound B55S] gave pIC50 of 6.84

According to the records, this compound `COCCN(C)C(=O)c1cc2c(C3CC3)cc(-c3cnc4nn(C)cc4c3)nc2s1` displays pIC50 of 9.15

pIC50 measured on `Cn1cc2cc(-c3ccc4sc(C(=O)N5CCOCC5)cc4n3)cnc2n1` = 8.35

Recorded result, `Cn1nnc2cc(-c3ccc4cc(C(=O)N5CCOCC5)sc4n3)cnc21` , pIC50: 7.79

Reported pIC50 of C[C@@H]1COCCN1C(=O)c1cc2ccc(-c3cnc4c(c3)nnn4C)nc2s1 [Compound B44R] : 7.25

Lab book: pIC50 of C[C@@H]1COCCN1C(=O)c1cc2ccc(-c3cnc4c(=O)n(C)ccc4c3)nc2s1 [Compound B62R] noted as 5.37

---

Measured IC50, listed per entry.
biological target: human recombinant 15-PGDH (Homo sapiens, UniProt P15428); test: Inhibition of recombinant 15-PGDH enzymatic activity (NADH quantification after addition of PGE2 and NAD+); type: biochemical; conditions: recombinant 15-PGDH; 15 min pre-incubation, 60-minute reaction, room temperature, pH 7.5; PGE2 and NAD+; read-out: PGDH-Lumi IC50
Response body: numeric value in nM, unit text excluded.

Some solved entries appear below for comparison.
Compound | Unit Annotation | IC50
C[C@@H]1COCCN1C(=O)c1cc2ccc(-c3ccc(=O)[nH]c3)nc2s1 [Compound B48R] | nM | 1030
Cc1c(C(=O)N2CCOCC2)sc2cc(-c3ccc4nn(C)cc4c3)ccc12 [Compound A11] | nM | 851
C[C@@H]1COCCN1C(=O)c1cc2ccc(-c3nccs3)nc2s1 [Compound B33R] | nM | 4400

Record for O=C(c1cc2c(C3CC3)cc(-c3cnc(N4CCNCC4)nc3)nc2s1)N1CCCCC1 [Compound B22] under target or system human recombinant 15-PGDH (Homo sapiens, UniProt P15428): IC50 reported as 3.61

---

target: human recombinant 15-PGDH (Homo sapiens); experiment: Inhibition of recombinant 15-PGDH enzymatic activity (NADH quantification after addition of PGE2 and NAD+); format: biochemical; conditions: recombinant 15-PGDH; 15 min pre-incubation, 60-minute reaction, room temperature, pH 7.5; PGE2 and NAD+; read-out: PGDH-Lumi IC50
Item-by-item account of log10 IC50
Heads up: the numbers are on a log10 scale; they represent IC50 in nM.

Compound | Measured On | log10 IC50
Cn1cc2cc(-c3ccc4cc(C(=O)N5CCOC6CC65)sc4n3)cnc2n1 (centres unmarked) | human recombinant 15-PGDH (Homo sapiens) | 0.26

Entry `Cn1cc2cc(-c3ccc4sc(C(=O)N5CCC(F)(F)CC5)cc4n3)cnc2n1` ; log10 IC50 = -0.37

Lab note: measured log10 IC50 of `Cc1c(C(=O)N2CCOC[C@@H]2C)sc2cc(-c3cnc4nn(C)cc4c3)ccc12` was 2.34

log10 IC50 in this record for C[C@H]1COCCN1C(=O)c1nc2ccc(-c3cnc4nn(C)cc4c3)nc2s1 [Compound C52S] : 1.41

What the record says about Cn1cc2cc(-c3ccc4cc(C(=O)N5CCOC(C(F)(F)F)C5)sc4n3)cnc2n1 (centres unmarked) : log10 IC50 is 0.41

The compound listed as C[C@@H]1COCCN1C(=O)c1cc2c(C3CC3)cc(-c3cnc4nn(C)cc4c3)nc2s1 (single isomer, unassigned) [Compound B17R] has a reported log10 IC50 of 0.49

// log10 IC50 value for `Cn1cc2cc(-c3ccc4cc(C(=O)N5CCOC6(CC6)C5)sc4n3)cnc2n1` : -0.15

Please fill in: log10 IC50 reported for `COCCN(C)C(=O)c1sc2cc(-c3cnc4nn(C)cc4c3)ccc2c1C` = 1.94

Data provenance: patent US20260315492A1
